Ref: patent US6545009B1

property: melting point

Before answering, review these 5 worked examples.
# compound, melting point
records = [
    ("COC(=O)c1ccc(-c2nc(-c3ccc(OC(F)(F)F)cc3)cs2)cc1", "138 to 139 °C"),
    ("O=C(O)c1ccc(-c2nc(-c3ccc(C(F)(F)F)cc3)co2)cc1", "258 to 259 °C"),
    ("O=C(O)c1ccc(-c2nc(-c3cccc(OC(F)(F)F)c3)cs2)cc1", "233 to 234 °C"),
    ("CCOC(=O)c1ccc(-c2csc(-c3ccc(Cl)cc3)n2)s1", "234 to 236 °C"),
    ("O=C(O)c1ccc(-c2nc(-c3cccc(C(F)(F)F)c3)co2)cc1", "253 to 254 °C"),
]

Looking for the measured melting point of `Br.COC(=O)c1ccc(-c2nc(-c3ccncc3)cs2)cc1` , can you help?
238 to 240 °C

Looking for the measured melting point of `Cc1cc(-c2csc(-c3cccc(C(=O)O)c3)n2)c(C)s1` , can you help?
155 to 156 °C

Looking for the measured melting point of O=C(O)c1ccc(-c2coc(-c3ccccc3)n2)cc1 [Example 12, 4-(2-phenyl-4-oxazolyl]benzoic acid] , can you help?
271 to 273 °C
